B1: Twister Ribozyme (parent)
chain: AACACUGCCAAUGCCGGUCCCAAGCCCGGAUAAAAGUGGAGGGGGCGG

Variants of: B1
Test: self-cleavage, relative activity (ratio to wild type); higher = more cleavage; co-transcriptional
Measured Quantity: self-cleavage
Answers are plain numbers.

Kindly note the recorded self-cleavage for U31A G39A , which is 0.343

List the reported self-cleavage of each variant below.
1. G42U C46G
2. A4U A30C
3. G17A G41C
4. A1C A32G
5. A30U
6. C8G C20G
7. G24C C46G
8. C8A G41A

A:
1. 0.309
2. 0.0756
3. 0.164
4. 0.18
5. 0.984
6. 0.0475
7. 0.105
8. 0.175
